Target: Genome polyprotein [1424-1463]/[1502-1685] (West Nile virus, UniProt P06935)
Sequence (P06935 whole entry) 1: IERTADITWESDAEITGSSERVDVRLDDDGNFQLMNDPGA
Sequence (P06935 whole entry) 2: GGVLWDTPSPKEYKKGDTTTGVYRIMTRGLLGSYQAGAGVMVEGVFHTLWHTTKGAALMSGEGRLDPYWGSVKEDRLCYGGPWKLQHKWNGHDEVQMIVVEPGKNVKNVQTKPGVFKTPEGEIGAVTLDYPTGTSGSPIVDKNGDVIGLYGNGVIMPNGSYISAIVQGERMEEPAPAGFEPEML
metric: pKd
Please express pKd as -log10 of the molar concentration.

// below: answered molecules
> print(dat)
                                   molecule  metric  measured
1  CC1CNC(c2ccc(Nc3nnc(Nc4ccc(C5=NC(C)CN5)cc4)c4ccccc34)cc2)=N1 (stereo not given) [phthalazine-based compound, 1]     pKd      4.68
2  NCc1ccc(Nc2nnc(Nc3ccc(C4=NCCN4)cc3)c3ccccc23)cc1 [phthalazine-based compound, 5]     pKd      4.00
3  c1ccc2c(Nc3ccc4c(c3)CNCC4)nnc(Nc3ccc(C4=NCCN4)cc3)c2c1 [phthalazine-based compound, 4]     pKd      5.34
4  c1ccc2c(Nc3ccc4c(c3)CCNC4)nnc(Nc3ccc(C4=NCCN4)cc3)c2c1 [phthalazine-based compound, 6]     pKd      5.15

Turning now to a further molecule:
Returns the measured pKd for the input molecule. Input: c1ccc2c(Nc3ccc(C4=NC5CCCCC5N4)cc3)nnc(Nc3ccc(C4=NC5CCCCC5N4)cc3)c2c1 (stereo not given) [phthalazine-based compound, 3]
4.05

====

Target: Genome polyprotein [1066-1250,R1182K]/[1394-1440,K1405R,D1408E] (dengue virus type 2, UniProt P14340+P27914, D1408E/K1405R/R1182K)
Construct: 1066-1250; 1394-1440
Sequence (P14340 1394-1440, looked up, stated change not applied): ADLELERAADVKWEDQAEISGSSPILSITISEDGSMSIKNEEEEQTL
Sequence (P27914 1066-1250, looked up, stated change not applied): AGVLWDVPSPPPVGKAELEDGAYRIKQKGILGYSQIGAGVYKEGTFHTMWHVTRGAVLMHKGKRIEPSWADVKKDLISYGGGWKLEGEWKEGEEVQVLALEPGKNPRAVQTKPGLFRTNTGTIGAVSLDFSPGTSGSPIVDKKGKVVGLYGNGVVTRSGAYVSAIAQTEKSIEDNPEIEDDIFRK
Assay: Enzyme Inhibition Assay (IC50) and Fluorescence Quench Assay (KD)
Settings: pH 7.5; 37 °C
Method: Inhibitors were assayed in a 96-well plate format. […] The reaction was initiated by the addition of substrate Bz-nKRR-AMC. Reaction progress was monitored continuously by following the increase in fluorescence on a Tecan Safire2 plate reader. IC50 values of inhibitors were derived by fitting the calculated initial velocities to a nonlinear regression curve using GraphPad Prism software. Each point of the IC50 curve was measured in duplicate during a single experiment. […]
metric: IC50 (µM)
Number in µM, nothing else.

Worked examples follow.
> print(dat)
                                   compound  metric  measured
1  NCc1ccc(Nc2nnc(Nc3ccc(C4=NCCN4)cc3)c3ccccc23)cc1 [phthalazine-based compound, 5]    IC50       5.8
2  c1ccc2c(Nc3ccc4c(c3)CNCC4)nnc(Nc3ccc(C4=NCCN4)cc3)c2c1 [phthalazine-based compound, 4]    IC50      27.4
3  c1ccc2c(Nc3ccc4c(c3)CCNC4)nnc(Nc3ccc(C4=NCCN4)cc3)c2c1 [phthalazine-based compound, 6]    IC50        55
4  c1ccc2c(Nc3ccc(C4=NC5CCCCC5N4)cc3)nnc(Nc3ccc(C4=NC5CCCCC5N4)cc3)c2c1 (centres undefined) [phthalazine-based compound, 3]    IC50       1.1

If you can, please state the reported IC50 value of c1ccc(-c2ccc(Nc3nnc(Nc4ccc(C5=NCCN5)cc4)c4ccccc34)cc2)cc1 [phthalazine-based compound, 2] .
2.3

Can you share its IC50? I mean this compound: c1ccc2c(Nc3ccc(C4=NCCN4)cc3)nnc(Nc3ccc(C4=NCCN4)cc3)c2c1 [phthalazine-based compound, 8]
10.2

Field request: IC50 | item: CC1CNC(c2ccc(Nc3nnc(Nc4ccc(C5=NC(C)CN5)cc4)c4ccccc34)cc2)=N1 (centres undefined) [phthalazine-based compound, 1]
6

Which IC50 value is on record for COC(=O)c1ccc(-c2ccc(Nc3nnc(Nc4ccc(C5=NCCN5)cc4)c4ccccc34)cc2)cc1 [phthalazine-based compound, 7] ?
1.6
